- target-desc: T1, human MSLN-hFc protein (Acro, Cat. No. MSN-H5253) (human, UniProt Q13421 296-580)
- T1 construct: bought protein; also called human MSLN full-length protein; not shown: human Fc (hFc) of the bought protein
- T1 sequence (Q13421 other isoform, or with tags, fused parts or gaps limits assumed): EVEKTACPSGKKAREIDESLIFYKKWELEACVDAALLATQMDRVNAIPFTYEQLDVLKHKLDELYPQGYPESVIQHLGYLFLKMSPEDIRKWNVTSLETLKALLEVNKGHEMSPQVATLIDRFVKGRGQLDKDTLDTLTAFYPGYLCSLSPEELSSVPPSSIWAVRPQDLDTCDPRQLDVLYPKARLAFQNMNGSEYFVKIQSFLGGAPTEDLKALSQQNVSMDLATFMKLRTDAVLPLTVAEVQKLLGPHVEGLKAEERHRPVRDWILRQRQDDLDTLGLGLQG
- assay-protocol: ELISA, coated human MSLN-hFc, antibody 0.0001 nM
Catalogue of OD450 nm readings, one per entry.
Lab note: record just the number, no unit beside it.

Would you please look over these solved cases?
{"binder": "F2.39.3-H6 (scFv, not shown: small tags and cut ends, also called S009-F2.39.3 humanized VH2 + VL2) scFv: EVQLVQSGAEVKKPGASVKVSCKASGYTFTNYWMHWVRQAPGQGLEWMGNINPSSGDSYYNERFMSRVTMTVDKSTSTAYMELSSLRSEDTAVYYCARSGGLWLAFWGQGTLVTVSSGGGGSGGGGSGGGGSDIVMTQSPDSLAVSLGERATINCKSSQTLLNSVSQNNYLAWYQQKPGQSPTLLIYFASTRESGVPDRFSGSGSGTDFTLTISSLQAEDVAVYYCQQHYRTPYTFGGGTKVEIK", "reported-property": "OD450 nm", "recorded-value": 0.06}
{"binder": "F2.39.3-H1 (scFv, not shown: small tags and cut ends, expressed as VH-(G4S)3-VL-his or VL-(G4S)3-VH-his; also called S009-F2.39.3 humanized VH1 + VL1) scFv: EVQLVQSGAEVKKPGASVKVSCKASGYTFTNYWMHWVRQAPGQGLEWMGNINPSSGDSYYNERFMSRVTMTVDKSTSTVYMELSSLRSEDTAVYYCARSGGLWLAFWGQGTLVTVSSGGGGSGGGGSGGGGSDIVMTQSPDSLAVSLGERATINCKSSQTLLNSVSQNNYLAWYQQKPGQSPKLLIYFASTRESGVPDRFSGSGSGTDFTLTISSLQAEDVAVYYCQQHYRTPYTFGGGTKVEIK", "reported-property": "OD450 nm", "recorded-value": 0.06}

Now consider the entry below.
Need OD450 nm, item F2.39.3-H9 (scFv, not shown: small tags and cut ends, also called S009-F2.39.3 humanized VH3 + VL1) scFv: EVQLVQSGAEVKKPGASVKVSCKASGYTFTNYWMHWVRQAPGQGLEWMGNINPSSGDSYYNERFMSRVTMTVDKSTSTAYMELSSLRSEDTAVYYCARSGGLWLAFWGPGTLVTVSSGGGGSGGGGSGGGGSDIVMTQSPDSLAVSLGERATINCKSSQTLLNSVSQNNYLAWYQQKPGQSPKLLIYFASTRESGVPDRFSGSGSGTDFTLTISSLQAEDVAVYYCQQHYRTPYTFGGGTKVEIK 0.05
